Assay: NCI Yeast Anticancer Drug Screen. Data for the mlh1 strain (AID 171);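 further: 0% = growth of vehicle-treated control cultures of the same strain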
Conditions: S. cerevisiae mlh1 strain growth inhibition; at 1.2 µM; stronger effect = higher value
About 79,000 compounds went through this panel and 15% of them were active in at least one assay; those are over-represented in the sample as a whole.

molecule	growth inhibition / %
O=C1Nc2ccc(Br)cc2C1=Nc1ccc2c(c1)OCO2	-8
CCCCC/C(=C(\C#N)C(=O)OCC)c1ccccc1	-2
O=c1nc2n(Cc3ccccc3)c3ccccc3nc-2c(=O)[nH]1	-3
C#CCN(Cc1ccc2nc(N)[nH]c(=O)c2c1)c1ccc(C(=O)NC(CCC(=O)O)C(=O)O)cc1 (stereo unspecified)	14
CC(C)(C)CC(C)(C)c1cc(O)c(O)c(CN2CCCCC2)c1	3
O=C1C=C(N2CCN(c3ccccn3)CC2)C(=O)c2c(O)ccc(O)c21	7
CC1=C(SCc2ccccc2)C(=O)c2ccccc2C1=O	-43
O/N=C\c1c(O)ccc2ccccc12	-3
Cc1ccccc1N=C(NO)c1ccccc1	1
Cc1c(C)c(C)c(CSC(=N)N)c(C)c1C	-35
COC(=O)CCC(NC(=S)N/N=C(\C)c1ccccn1)C(=O)OC (stereo unspecified)	20
CC(C)(CCCCC(C)(C)[N+](C)(C)C)[N+](C)(C)C	1
NC(=S)NC(=S)Nc1ccccc1	-3
CC1OC(O[C@H]2/C=C/C=C/C=C/C=C/C=C/C=C/C=C/[C@H](C)[C@@H](O)[C@@H](C)[C@H](C)OC(=O)C[C@H](O)C[C@H](O)CC[C@@H](O)[C@H](O)C[C@H](O)C[C@]3(O)C[C@H](O)[C@@H](C(=O)O)[C@H](C2)O3)C(O)C(N)C1O (stereo partly specified)	7
CC(C)OC(=O)Nc1ccc2nc(-c3cscn3)[nH]c2c1	1
CCCCNC1CCC2(SCCS2)c2[nH]c3ccccc3c21 (stereo unspecified)	5
CN(C)N=Nc1ccccc1C(=O)NC#N	1
CCOC(=O)C(Br)C(Br)c1ccccc1Cl (stereo unspecified)	9
O=C(NO)Nc1cc(Cl)cc(Cl)c1	4
Cc1cc2c3ccccc3c3ccccc3c2nn1	5
CC(C)(C)C1=CC(=CC=C2C=CN(CCCCCCCCCCCO)C=C2)C=C(C(C)(C)C)C1=O	-3
CC(=O)Nc1ccc(/C=C/[N+](=O)[O-])cc1	-1
COC1=C(OC)C(=O)C(Sc2ccc3ccccc3c2)=CC1=O	-39
CC[N+](CC)(CC)c1ccccc1	-26
c1ccc(Cc2cc(-c3ccccc3)n[nH]2)cc1	4
CCC(=O)c1cc(C(=O)C(=S)SC)cc(C(=O)C(=S)SC)c1	0
S=C1SCN(C2CCCCC2)CN1C1CCCCC1	-44
O=[N+]([O-])c1ccc(N/N=C/Cc2ccccc2)c([N+](=O)[O-])c1	-4
C[C](C)(C)[Ge]([O][Ge]([c]1ccccc1)[c]1ccccc1)([O][Ge]([c]1ccccc1)[c]1ccccc1)[C](C)(C)C	0
S=c1[nH]c2cc3ccccc3cc2[nH]1	-13
CN1CCN(C(=O)/C=C/C(=O)c2ccccc2)CC1	-1
CCCCCCCCCCCC1=NCCO1	-5
CN(C)/C=C/c1nnc([N+](=O)[O-])s1	5
O=C(O)CNC(=S)Nc1ccccc1	-63
COc1ccc(C(NCCNC(c2ccc(OC)c(OC)c2)c2cc3c(cc2O)OCO3)c2cc3c(cc2O)OCO3)cc1OC (stereo unspecified)	2
O=[N+]([O-])c1cc(Cl)cnc1Br	6
Cc1cccc(C(C)(C)C)c1NC(=O)C(C#N)C1=C(Cl)C(=O)c2ccccc2C1=O (stereo unspecified)	17
COC(=O)CC1(O)C(/C=C/c2ccccc2)C(C(=O)OC)C(=O)C(C(=O)OC)C1C(=O)OC (stereo unspecified)	1
Oc1ccc(-c2nc(-c3ccc(F)cc3)c(-c3ccc4ccccc4n3)[nH]2)cc1	-44
CN(C)CCCCN1c2ccccc2Sc2ccc(N=[N+]=[N-])cc21	32
Cc1ccc(N=Nc2ccc(O)c(=O)cc2)cc1	3
Cc1ccc(Cl)cc1NC(=O)OCCN(C)C(=O)Nc1cc(Cl)ccc1C	-24
Clc1ccc(NCNC2Nc3ccccc3N2)cc1Cl	-2
CCOC(=O)/C(=C\c1ccc(C#N)cc1)C(C)=O	0
Cc1c(C(C)C)cc(OCCO)cc1C(C)C	-9
COC(=O)/C=C(/C(=O)OC)C(Cl)(Cl)Cl	-3
